Target: T1, siglec 2 expressed on HEK293 cells (UniProt P20273 20-847, limits assumed)
T1 construct: whole, on cells; also called Siglec-6 family member
T1 sequence (looked up): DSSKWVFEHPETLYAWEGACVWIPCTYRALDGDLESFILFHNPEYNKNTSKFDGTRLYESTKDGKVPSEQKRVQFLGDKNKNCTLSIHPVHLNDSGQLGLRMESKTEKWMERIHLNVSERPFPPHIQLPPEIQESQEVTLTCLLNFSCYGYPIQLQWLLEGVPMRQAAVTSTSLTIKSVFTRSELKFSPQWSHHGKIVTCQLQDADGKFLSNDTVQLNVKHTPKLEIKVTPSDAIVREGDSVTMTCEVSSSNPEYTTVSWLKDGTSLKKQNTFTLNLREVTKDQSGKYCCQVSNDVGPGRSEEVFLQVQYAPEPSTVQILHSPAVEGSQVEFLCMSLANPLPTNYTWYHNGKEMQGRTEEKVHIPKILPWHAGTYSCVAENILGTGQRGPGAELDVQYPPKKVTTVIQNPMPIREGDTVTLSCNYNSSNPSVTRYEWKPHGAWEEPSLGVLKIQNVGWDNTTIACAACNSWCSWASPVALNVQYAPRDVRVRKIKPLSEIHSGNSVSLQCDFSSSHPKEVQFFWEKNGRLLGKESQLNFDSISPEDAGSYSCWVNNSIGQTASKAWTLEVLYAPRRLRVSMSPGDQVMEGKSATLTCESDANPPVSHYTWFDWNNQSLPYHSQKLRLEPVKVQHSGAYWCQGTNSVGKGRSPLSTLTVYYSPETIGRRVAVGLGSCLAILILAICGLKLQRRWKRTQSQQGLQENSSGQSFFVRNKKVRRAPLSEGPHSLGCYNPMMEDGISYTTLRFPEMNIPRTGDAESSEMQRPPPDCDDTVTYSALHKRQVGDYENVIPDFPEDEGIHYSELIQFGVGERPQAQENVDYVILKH
Assay: flow cytometry on HEK293 cells expressing the target
READOUT_LABEL: binding result

[[record]]
binder = "hRND-5 (antibody, human IgG1, kappa, V domains shown, also called humanized RND-5; hRND-H3b / hRND-L3; copies: 2 + 2) VH: QVQLVQSGAEVKKPGASVKLSCKASGYAFTSYWMHWVRQAPGQRLEWIGEIYPTNGGTTYNEKFKRRATLTVDKSTSTAYMELSRLRSDDTAVYYCTIEDFYAMDYWGQGTTVTVSS VL: DIVMTQTPLSLSVTPGQPASISCKSSQSLLDSDGKTSLNWLLQKPGQSPQRLIYLVSKLDSGVPDRFSGSGSGTDFTLKISRVEAEDVGVYYCWQGTHFPYTFGQGTKLEIKR"
value_reported = "no binding"

[[record]]
binder = "hRND-3 (antibody, human IgG1, kappa, V domains shown, also called humanized RND-3; hRND-H3 / hRND-L3; copies: 2 + 2) VH: QVQLVQSGAEVKKPGASVKLSCKASGYAFTSYWMHWVRQAPGQRLEWIGEIYPTNGGTTYAQKFQGRATLTVDKSTSTAYMELSRLRSDDTAVYYCTIEDFYAMDYWGQGTTVTVSS VL: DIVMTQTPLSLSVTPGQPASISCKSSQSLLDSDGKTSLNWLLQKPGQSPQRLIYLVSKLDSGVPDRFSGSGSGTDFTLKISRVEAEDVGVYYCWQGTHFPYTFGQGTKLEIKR"
value_reported = "no binding"

[[record]]
binder = "hRND-2 (antibody, human IgG1, kappa, V domains shown, also called humanized RND-2; hRND-H2 / hRND-L3; copies: 2 + 2) VH: QVQLVQSGAEVKKPGASVKVSCKASGYAFTSYWMHWVRQAPGQRLEWMGEIYPTNGGTTYAQKFQGRVTMTVDKSTSTAYMELSRLRSDDTAVYYCTIEDFYAMDYWGQGTTVTVSS VL: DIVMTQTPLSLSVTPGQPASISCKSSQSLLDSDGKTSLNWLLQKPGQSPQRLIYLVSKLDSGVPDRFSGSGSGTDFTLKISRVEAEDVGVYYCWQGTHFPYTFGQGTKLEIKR"
value_reported = "no binding"

